Taken from paper PMC6348443.

- Measured Target: KOR (Homo sapiens, UniProt P41145)
- Construct: host or cells: CHO (CHO-hKOR)
- Sequence (P41145 whole entry): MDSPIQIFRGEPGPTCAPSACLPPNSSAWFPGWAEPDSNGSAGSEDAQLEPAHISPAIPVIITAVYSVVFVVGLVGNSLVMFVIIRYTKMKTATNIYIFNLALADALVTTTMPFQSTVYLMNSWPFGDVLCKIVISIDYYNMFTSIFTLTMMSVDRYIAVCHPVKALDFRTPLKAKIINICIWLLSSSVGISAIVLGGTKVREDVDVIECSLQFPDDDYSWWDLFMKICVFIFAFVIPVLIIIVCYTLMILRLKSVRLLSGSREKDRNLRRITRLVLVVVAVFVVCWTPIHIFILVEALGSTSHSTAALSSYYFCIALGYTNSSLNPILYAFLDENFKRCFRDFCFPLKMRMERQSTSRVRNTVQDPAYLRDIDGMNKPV
- Assay Procedure: [35S]GTPγS binding assay, CHO-hKOR membranes
- Format: biochemical
- Protocol Conditions: partial agonist <85% of the response to U69,593
Outcome Measure: functional profile at KOR (full/partial agonist)

Compound: CO[C@@]12CC[C@@H](N[C@@H](CO)C(=O)O)[C@@H]3Oc4c(O)ccc5c4[C@@]31CCN(C)[C@@H]2C5 [Compound 6b]
Measured Target: KOR (Homo sapiens, UniProt P41145)
Assay Result: full agonists

Compound: CO[C@@]12CC[C@@H](N[C@@H](C(=O)O)C(C)C)[C@@H]3Oc4c(O)ccc5c4[C@@]31CCN(C)[C@@H]2C5 [Compound 16b]
Measured Target: KOR (Homo sapiens, UniProt P41145)
Assay Result: full agonists
